# SYSTEM NAME: T1, human MSLN-FL-his protein (human, UniProt Q13421 296-580)
# T1 construct: Made in HEK293E cells, purified on nickel column; it is put last here; also called human MSLN full-length protein; hMSLN-FL-his; not shown: His tag
# T1 sequence (Q13421 other isoform, or with tags, fused parts or gaps): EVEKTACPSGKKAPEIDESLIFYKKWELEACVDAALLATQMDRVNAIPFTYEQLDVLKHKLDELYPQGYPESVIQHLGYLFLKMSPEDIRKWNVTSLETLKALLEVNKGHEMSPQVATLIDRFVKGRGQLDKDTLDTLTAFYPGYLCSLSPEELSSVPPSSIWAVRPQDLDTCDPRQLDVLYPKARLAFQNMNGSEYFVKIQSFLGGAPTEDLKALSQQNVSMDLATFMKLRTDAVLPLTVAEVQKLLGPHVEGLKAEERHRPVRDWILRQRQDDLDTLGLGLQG
# EXPERIMENTAL PROTOCOL: ELISA on coated antigen, antibody 0.1 nM
Consider the following binders and their measured OD450 readings.
Only the number, expressed in OD, is required.

Known results for binders:
Name the recorded OD450 of the binder listed here: S009-F8-12.13 (antibody, human IgG1, kappa, V domains shown, Human-murine chimeric antibody, human IgG1 heavy and kappa light constant regions) VH: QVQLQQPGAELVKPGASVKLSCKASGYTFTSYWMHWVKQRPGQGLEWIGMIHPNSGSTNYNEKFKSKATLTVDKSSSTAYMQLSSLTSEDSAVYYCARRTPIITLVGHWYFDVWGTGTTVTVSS VL: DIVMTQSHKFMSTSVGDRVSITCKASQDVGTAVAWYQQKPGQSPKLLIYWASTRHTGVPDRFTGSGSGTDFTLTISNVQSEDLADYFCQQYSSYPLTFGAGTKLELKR
2.22

Name the recorded OD450 of the binder listed here: S009-F8-19.21 (antibody, human IgG1, kappa, V domains shown, Human-murine chimeric antibody, human IgG1 heavy and kappa light constant regions) VH: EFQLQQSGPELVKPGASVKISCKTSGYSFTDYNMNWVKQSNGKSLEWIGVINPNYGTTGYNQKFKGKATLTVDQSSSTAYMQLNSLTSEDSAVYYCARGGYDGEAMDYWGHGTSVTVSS VL: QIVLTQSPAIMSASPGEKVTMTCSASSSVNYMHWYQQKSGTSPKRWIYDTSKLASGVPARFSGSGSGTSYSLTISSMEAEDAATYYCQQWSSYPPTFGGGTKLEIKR
1.61

Let us move to another entry and its OD450.
Name the recorded OD450 of the binder listed here: S009-F8-31.22 (antibody, human IgG1, kappa, V domains shown, Human-murine chimeric antibody, human IgG1 heavy and kappa light constant regions) VH: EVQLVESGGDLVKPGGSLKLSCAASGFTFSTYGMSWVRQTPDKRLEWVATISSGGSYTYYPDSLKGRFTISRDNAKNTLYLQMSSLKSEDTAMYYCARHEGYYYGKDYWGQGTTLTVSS VL: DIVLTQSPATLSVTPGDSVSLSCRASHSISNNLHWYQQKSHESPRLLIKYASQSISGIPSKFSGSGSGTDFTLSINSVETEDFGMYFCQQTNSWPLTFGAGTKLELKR
2.19
